# Tested on: HT-29 cells
# testDescription: Inhibition assay of cancer cell sphere-forming ability (Test Example 2), HT-29
# Format: cell-based, human
# experimentalSetup: Homo sapiens, HT-29, 96 h, read-out: IC50 (μM) HT; concentration for 50% inhibition of cell proliferation (Sphere IC50 value)
readoutKind: IC50 (µM)

smi=O=C1c2ccncc2C(=O)c2sc(CNCC(F)F)cc21 readoutkind=IC50 unitssymbol=µM reading=0.39

* * *

# System: HT-29 cells
# testDescription: Proliferation inhibition assay of cancer cells (Test Example 1), HT-29
# Assay type: cell-based, human
# experimentalSetup: Homo sapiens, HT-29, 96 h, HT-29 cells, cultured for 4 days, Cell Titer-Glo; read-out: IC50 (μM) HT; concentration for 50% inhibition of cell proliferation (Bulk IC50 value)
readoutKind: IC50 (µM)

compound="CC(O)c1cc2c(o1)C(=O)c1ccncc1C2=O (stereo not drawn) [Example 45]" targetofassay="HT-29 cells" censoringqualifier== reading=0.52
compound="O=C1c2cnccc2C(=O)c2sc(C(=O)N3CCOCC3)cc21 [Example 20]" targetofassay="HT-29 cells" censoringqualifier== reading=0.09
compound="CC(C)(C)OC(=O)NCc1cc2c(s1)C(=O)c1ncccc1C2=O [Example 41]" targetofassay="HT-29 cells" censoringqualifier== reading=4.52
compound="O=C1c2ccncc2C(=O)c2c1oc(C(F)F)c2C(=O)N1CCOCC1 [Example 62]" targetofassay="HT-29 cells" censoringqualifier== reading=0.57
compound="CC(=O)c1cc2c(o1)C(=O)c1cccnc1C2=O [Example 42, 2-acetylfuro[2,3-g]quinoline-4,9-dione]" targetofassay="HT-29 cells" censoringqualifier== reading=0.72
compound="O=C1c2cnccc2C(=O)c2sc(COCc3ccccc3)cc21 [Example 18]" targetofassay="HT-29 cells" censoringqualifier=> reading=10
compound="N#Cc1cc2c(s1)C(=O)c1ccncc1C2=O [Example 29]" targetofassay="HT-29 cells" censoringqualifier== reading=0.32
compound="CC(=O)c1cc2c(o1)C(=O)c1ncccc1C2=O [Example 50, 2-acetylfuro[3,2-g]quinoline-4,9-dione]" targetofassay="HT-29 cells" censoringqualifier== reading=0.59
compound="CC(=O)c1cc2c(s1)C(=O)c1cccnc1C2=O [Example 1, 2-acetylthieno[2,3-g]quinoline-4,9-dione]" targetofassay="HT-29 cells" censoringqualifier== reading=0.57
